# Test system: HL-60(TB) leukemia
# assay.overview: NCI tumour cell line growth inhibition, 48 h
readout.label: GI50

# compound, GI50
measured = [
    ("C=CC(C)(O)CC/C=C(\\CO)C(=O)OC1C(C)OC(O[C@](C)(C=C)CC/C=C(\\CO)C(=O)O[C@H]2C[C@@]3(C(=O)OC4OC(CO)C(O)C(O)C4OC4OC(C)C(OC5OC(CO)C(O)C5O)C(OC5OC(CO)C(O)C(O)C5O)C4O)C(CC2(C)C)C2=CCC4[C@@]5(C)CC[C@H](OC6OC(COC7OC(C)C(O)C(O)C7OC7OCC(O)C(O)C7O)C(O)C(O)C6NC(C)=O)C(C)(C)C5CC[C@@]4(C)[C@]2(C)C[C@H]3O)C(O)C1O (some centres not stated)", "0.13 µM"),
]

Which value of GI50 has been reported for COc1cc2c(cc1OCCCOc1ccc(-c3nc4ccc(N5CCN(C)CC5)cc4[nH]3)cc1)N=C[C@@H]1CCCN1C2=O in the records? < 0.01 µM

---

# Tested on: A549 NSCLC
# assay.overview: NCI tumour cell line growth inhibition, 48 h; in the data active = GI50 below about 0.43 µM; inactive = the rest
Where a SMILES comes first, the peptide text is derived from it. The star is where a group is joined. Trt = c1ccc(C(c2ccccc2)(c2ccccc2)*)cc1; Cbz = O=C(OCc1ccccc1)*
Field 'call' accepts active, inactive

// below: answered compounds
# compound, class.label
measured = [
    ("Cc1cc(Nc2nc(-c3ccncc3)nc3ccccc23)n[nH]1", "inactive"),
    ("Cc1c(Cl)c(C)c(Cc2c(C)c(Cl)c(C)c(Cl)c2O)c(O)c1Cl", "inactive"),
    ("O=C(/C=C/c1ccc([N+](=O)[O-])cc1)c1cccc(Nc2nc(Nc3ccccc3)nc(Nc3ccccc3)n2)c1", "inactive"),
    ("CCN(CC)Cc1cc(Nc2c3ccccc3nc3cc(Cl)ccc23)ccc1O", "inactive"),
    ("Nc1c(C(=O)Nc2cccc3ccccc23)sc2nc3c(cc12)C(=O)CCC3", "active"),
    ("O=C(Nc1cccc(C(F)(F)F)c1)c1cc2ccccc2cc1O", "inactive"),
    ("COc1ccc2c(c1)/C(=N/OC(C)=O)c1c-2cnc2ccccc12", "inactive"),
    ("COC(=O)C(CSC(c1ccccc1)(c1ccccc1)c1ccccc1)NC(=O)C(CC(N)=O)NC(=O)OCc1ccccc1 (stereo not drawn) (Cbz-Asn-Cys(Trt)-OMe; configuration not given here)", "inactive"),
    ("COc1ccc(-c2nc(C(=O)c3ccccc3)n(CC(=O)c3ccc(Cl)cc3)c2-c2ccc(OC)cc2)cc1", "inactive"),
    ("O=C(C=C=Nc1ccccc1)C(=O)N=C=Cc1ccccc1", "inactive"),
]

Call for entry NS(=O)(=O)c1ccc(NC(=O)c2cccc(NC3=C(Cl)C(=O)N(Cc4ccccc4)C3=O)c2)cc1 : inactive

Which outcome was assigned to Oc1ccc(Cl)cc1/C=N\NC(=S)N/N=C/c1cc(Cl)ccc1O in this test? inactive

What classification did C=CC(C)(O)CC/C=C(\CO)C(=O)OC1C(C)OC(O[C@](C)(C=C)CC/C=C(\CO)C(=O)O[C@H]2C[C@@]3(C(=O)OC4OC(CO)C(O)C(O)C4OC4OC(C)C(OC5OC(CO)C(O)C5O)C(OC5OC(CO)C(O)C(O)C5O)C4O)C(CC2(C)C)C2=CCC4[C@@]5(C)CC[C@H](OC6OC(COC7OC(C)C(O)C(O)C7OC7OCC(O)C(O)C7O)C(O)C(O)C6NC(C)=O)C(C)(C)C5CC[C@@]4(C)[C@]2(C)C[C@H]3O)C(O)C1O (some centres undefined) end up with in this test? active

Assay outcome for COc1cccc2c1cc1c3c(cc4c(c32)OCO4)C(=O)N1 : what was it? inactive

---

# Test system: K-562 leukemia
# assay.overview: NCI tumour cell line growth inhibition, 48 h
readout.label: TGI

Consider the reported TGI for these compounds:
# compound, TGI
data = [
    ("c1ccc(-c2ccnc3c2ccc2c(-c4ccccc4)ccnc23)cc1", "11.4 µM"),
    ("CC[C@@]1(O)C(=O)OCc2c1cc1n(c2=O)Cc2c-1nc1ccccc1c2/C=N\\NC(=O)C(N)Cc1c[nH]c2ccccc12 (stereo partly specified)", "> 100 µM"),
    ("O=C(NCCCCCN1CCC2(CCCCC2)CC1)C(C1CCCCC1)C1CCCCC1", "3.5 µM"),
    ("COc1cc(/C=N/NC2=NCCN2)ccc1O", "> 100 µM"),
    ("[CH3][Sn]1([CH3])[O]CC(COc2cc(Cl)c(Cl)cc2Cl)[O]1 (stereo unspecified)", "> 100 µM"),
    ("CCOc1cc2c(cc1O)C(N)C[C@@H]1[C@@H]2CC[C@]2(C)[C@@H](O)CC[C@@H]12 (stereo partly specified)", "73.2 µM"),
    ("Cc1ccc2nc(NC(=O)C(=O)CC(=O)c3cccc4ccccc34)sc2c1", "> 100 µM"),
    ("COc1cc2ccc3ccncc3c2cc1OC", "> 10 µM"),
]

Recorded TGI for COC(=O)C(=O)C(C(=O)C(=O)Nc1cc(Cl)c(Cl)cc1Cl)c1nc2ccc([N+](=O)[O-])cc2[nH]c1=O (stereo unspecified) , please? > 100 µM

Consider the compound C=CC[C@H](N=C(SC)SC)C(=O)N1C(=O)N(C)[C@@H](C)[C@H]1c1ccccc1 and give its measured TGI. > 100 µM

// query TGI value for entry NS(=O)(=O)c1ccc(NC(=O)c2cccc(NC3=C(Cl)C(=O)N(Cc4ccccc4)C3=O)c2)cc1 6.09 µM

Recorded TGI of COc1cc2c(cc1OCCCOc1ccc(-c3nc4ccc(N5CCN(C)CC5)cc4[nH]3)cc1)N=C[C@@H]1CCCN1C2=O , please. 0.818 µM

Which TGI is listed for CCNC(=S)N/N=C(\C)c1cccc(C)n1 ? > 100 µM

Which TGI is listed for COCCN1C(=O)C2c3[nH]c4ccccc4c3C3CCC(C(C)(C)C)CC3C2C1=O (stereo unspecified) ? > 100 µM

Need TGI of CCCN1CCC=C(c2ccc(Nc3nc(Nc4ccccc4C(N)=O)c4cc[nH]c4n3)c(C)c2)C1 , thanks. > 22.8 µM

Need TGI of C=CC(C)(O)CC/C=C(\CO)C(=O)OC1C(C)OC(O[C@](C)(C=C)CC/C=C(\CO)C(=O)O[C@H]2C[C@@]3(C(=O)OC4OC(CO)C(O)C(O)C4OC4OC(C)C(OC5OC(CO)C(O)C5O)C(OC5OC(CO)C(O)C(O)C5O)C4O)C(CC2(C)C)C2=CCC4[C@@]5(C)CC[C@H](OC6OC(COC7OC(C)C(O)C(O)C7OC7OCC(O)C(O)C7O)C(O)C(O)C6NC(C)=O)C(C)(C)C5CC[C@@]4(C)[C@]2(C)C[C@H]3O)C(O)C1O (stereo partly specified) , thanks. 16.7 µM

Value lookup for TGI; key = O=c1[nH]c2ccc(CC(=S)N3CCCCC3)cc2s1 > 100 µM

Name the recorded TGI for Cc1ccc(S(=NS(=O)(=O)c2ccc(C)cc2)c2ccc(C)cc2)cc1 . > 100 µM

Quick check: TGI of CCc1cc(Cc2ccc(C)c(NC(=O)C(=O)C3C(=O)NC(=O)NC3=O)c2CC)cc(C)c1NC(=O)C(=O)C1C(=O)NC(=O)NC1=O ? > 100 µM

Form field: reported TGI of Cc1ccc(S[C@@H](C)[C@@](O)(C(N)=O)c2ccccc2)cc1 44.5 µM

Which TGI value belongs to O=C1c2cc([N+](=O)[O-])sc2C(=O)c2c([N+](=O)[O-])csc21 ? 0.399 µM

---

# Test system: M14 melanoma
# assay.overview: NCI tumour cell line growth inhibition, 48 h
Item-by-item account of TGI

Before answering, review these 2 worked examples.
# compound, TGI
data = [
    ("CCCCCCCCCCCCOP(=O)(O)OP(=O)(O)OCC1OC(n2cc(C)c(=O)[nH]c2=O)CC1O (centres undefined)", "> 100 µM"),
    ("Cc1cc2nc(-c3c(F)cccc3Cl)n(Cc3c(F)cccc3Cl)c2cc1C", "26.7 µM"),
]

Please look up its TGI: CCc1cc(Cc2ccc(C)c(NC(=O)C(=O)C3C(=O)NC(=O)NC3=O)c2CC)cc(C)c1NC(=O)C(=O)C1C(=O)NC(=O)NC1=O > 100 µM

TGI lookup needed for COc1ccccc1NC(=S)N/N=C/c1cccc(C)n1 , thanks. 9.43 µM

What value of TGI has been reported for the following compound? COc1ccc2c([nH]c3c(O)c(-c4c(C)cc5c([nH]c6c(CC=C(C)C)c(OC)ccc65)c4O)c(C)cc32)c1CC=C(C)C > 100 µM

Recorded TGI for CN1CCC2(CC1)C(=NC1CCCCC1)NC(=O)N2c1ccccc1 , please? > 100 µM

What value of TGI has been recorded for this entry: Nc1ccn(C2OC(C(OC3OC(CO)C(O)C(N)C3O)C(O)C(O)C(O)C(O)CO)C(N)C(O)C2O)c(=O)n1 (centres undefined) > 100 µM

Any idea what its TGI is? The compound is NS(=O)(=O)c1ccc(NC(=O)c2cccc(NC3=C(Cl)C(=O)N(Cc4ccccc4)C3=O)c2)cc1 38.7 µM

Sample CCOC(C)OC1CC(n2cc(C)c(=O)[nH]c2=O)OC1CO (centres undefined) — what was its TGI? > 100 µM

Look up TGI: O=C1C=Cc2ncccc2C1=O 32 µM

Looking for the measured TGI of O=C(Nc1ccc(Cl)cc1)c1cc(S(=O)(=O)Nc2n[nH]c(=O)n2-c2ccccc2)c(S)cc1Cl , can you help? > 100 µM

Would you mind telling me what TGI value was observed for COc1ccc2c(c1)c1c3n2CCNN=C3CCC1 ? > 100 µM

State the recorded TGI for this entry: COc1cc(C(C#N)NNc2nc(C)cc(=O)[nH]2)cc(OC)c1OC (centres undefined) > 100 µM

Requested read-out: TGI. Entry: CC(=O)NC1C(OCc2ccccc2)OC(CO)C(O)C1OCC(=O)N[C@@H](C)C(=O)N[C@H](CCC(=O)NCCCNc1ccc([N+](=O)[O-])c2[nH]c3ccccc3c(=O)c12)C(N)=O (some centres undefined) > 100 µM

What value of TGI has been reported for the following compound? O=Cc1ccc(N2CCN(c3ccc(C=O)cc3)CC2)cc1 > 100 µM

Quick one: TGI for CC(C)N1C(C)[C@@H](c2ccccc2)O[P@]1(=O)CC1=CCCCC1 (some centres undefined) ? > 100 µM

TGI for O=C(O)c1ccc(N/C(=C(/C(Cl)=C(Cl)Cl)[N+](=O)[O-])n2nnc3ccccc32)cc1 ? > 100 µM

Fill in the blank: the reported TGI of O=c1[nH]nc(-c2ccccc2)n1-n1cnnc1 is ____. > 100 µM

Value lookup for TGI; key = O=C(/C=C/c1cccc2ccccc12)Nc1ncc(Cc2ccccc2)s1 3.79 µM
